- System: Proteus morganii IFO 3848
- procedure.text: Antibacterial activity, agar-dilution MIC, organism No. 18
- Assay type: cell-based
- condition.context: Morganella morganii, IFO3848; Organism No. 18, bouillon-agar; read-out: Minimum Inhibitory Concentration
endpoint: MIC (µg/mL)

>>> reported_result("[C-]#[N+]C12CC3(/C=C/C(=O)NCc4ccccc4)OC3C1O2 (centres unmarked) [Compound No. 24]")
1.56
>>> reported_result("[C-]#[N+]C12CC3(/C=C/C(=O)OCC(=O)c4ccc(Cl)cc4)OC3C1O2 (centres unmarked) [compound 5]")
100
>>> reported_result("[C-]#[N+]C12CC3(/C=C/C(=O)OCc4ccccc4[N+](=O)[O-])OC3C1O2 (centres unmarked) [compound 13]")
12.5
>>> reported_result("[C-]#[N+]C12CC3(/C=C/C(=O)Nc4ccc(I)cc4)OC3C1O2 (centres unmarked) [compound 45]")
100
>>> reported_result("[C-]#[N+]C12CC3(/C=C/C(=O)OCc4ccc([N+](=O)[O-])cc4)OC3C1O2 (centres unmarked) [compound 15]")
25
